Target: T1, UNK ZnF1-3 (human, UniProt Q9C0B0 31-174)
T1 sequence: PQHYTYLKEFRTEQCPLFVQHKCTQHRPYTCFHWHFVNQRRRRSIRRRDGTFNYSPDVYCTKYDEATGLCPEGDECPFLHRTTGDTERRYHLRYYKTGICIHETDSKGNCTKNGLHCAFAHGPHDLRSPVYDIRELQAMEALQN
Experiment: nsRBNS (natural sequence RNA bind-n-seq); RBNS binding buffer (assumed for nsRBNS): 25 mM Tris pH 7.5, 150 mM KCl, 3 mM MgCl2, 0.01% Triton X-100, 500 ug/ml BSA, 20 U/ml SUPERase-In, 4 C; UNK is unkempt and MSI1 is Musashi-1; names of the RNAs are library labels; protein concentration not given here; high values mean tight binding
Over roughly 24,000 sequences, “enrichment r” has its median near 0.99; the highest 2% begin near 3.7. For the sample, the highest values were picked, then their nearest neighbours and some sequences at random.
binding signal strictly under 3 enrichment R means 1.0; at 3 enrichment R or over means 0.0.

Examples with answers:
Asked: I'd appreciate it if you could check whether chr17:60770872:60770873:+_ENSG00000011028_ENST00000303375|hu_hu|hu_hu_hu_mus_True|18_58 (ssRNA) RNA: GGGAGUUCUACAGUCCGACGAUCUCUUUAAAAAAAAAAAAAAAAAGACAAACAAUAAUAGCACAUUUCGAGAAUCAUCAACUACAGUAGAGGGUCCGCUUUGAGUUUUUGUUCACAACAUUGUCCCCUGGGACACGGGGACUGCAACAGAGGAUUGAGCAUCA has binding signal smaller than 3 enrichment R.
Given back: 0.0

Asked: I'd appreciate it if you could check whether chr16:20683585:20683586:+_ENSMUSG00000045983_ENSMUST00000044783|mus_mus|motif|central (ssRNA) RNA: GGGAGUUCUACAGUCCGACGAUCUAUUGCUUCUGUUAACAUCUUCAACUUGAAUAACUCUCCAAUAAACUUGAUAUUCCCGGAAGAGCGCCGCCUAGCUAUGUCCCGGGCUUCUUCUAGCUCUUCUUUCAGGCGUCCCCGUUCCAACAGAGGAUUGAGCAUCA has binding signal smaller than 3 enrichment R.
Given back: 1.0

Asked: I'd appreciate it if you could check whether 52238803_52238923_934_CDS_ENSG00000023330_ENST00000469224|human|control|control (ssRNA) RNA: GGGAGUUCUACAGUCCGACGAUCCCCACACACCCGUGGGUGGCGACUCAUUCCUAGGUAGUCAUUACUGCACCAGACUGACACUUGCUUUUUGGUGAUGAGGGAGUCUGAAUAGUCAUCUGCCAUGGGGAAGAUGUGUGCUCGCAACAGAGGAUUGAGCAUCA has binding signal smaller than 3 enrichment R.
Given back: 1.0

Asked: I'd appreciate it if you could check whether chr17:60770872:60770873:+_ENSG00000011028_ENST00000303375|hu_hu|hu_hu_hu_mus_True|1_1 (ssRNA) RNA: GGGAGUUCUACAGUCCGACGAUCUCUUUAAAAAAAAAAAAAAAAAGACAAACAAUAAUAGCACAUUUCGAGAAUCAAGAACUACAAUAGAGGGUCCGCUUUGAGUUUUUGUUCACAUCGUCCUGCACUGGGACACGACCAGGACAACAGAGGAUUGAGCAUCA has binding signal smaller than 3 enrichment R.
Given back: 0.0

Asked: I'd appreciate it if you could check whether chr17:60770872:60770873:+_ENSG00000011028_ENST00000303375|hu_hu|hu_hu_hu_mus_True|18_48 (ssRNA) RNA: GGGAGUUCUACAGUCCGACGAUCUCUUUAAAAAAAAAAAAAAAAAGACAAACAAUAAUAGCACAUUUCGAGAAUCAAGAACUACAAAGAAAGGGCCGCUUUGAGUUUUUGUUCACAACAUUGUCCCCUGGGACACGGGGACUGCAACAGAGGAUUGAGCAUCA has binding signal smaller than 3 enrichment R.
Given back: 0.0

New cases:
Asked: I'd appreciate it if you could check whether chr17:60770872:60770873:+_ENSG00000011028_ENST00000303375|hu_hu|hu_hu_hu_mus_True|18_88 (ssRNA) RNA: GGGAGUUCUACAGUCCGACGAUCUCUUUAAAAAAAAAAAAAAAAAGUUUAAAAACAAUAGCACAUUUCGAGAAUCAAGAACUACAAUAGAGGGUCCGCUUUGAGUUUUUGUUCACAACAUUGUCCCCUGGGACACGGGGACUGCAACAGAGGAUUGAGCAUCA has binding signal smaller than 3 enrichment R.
Given back: 0.0

Asked: I'd appreciate it if you could check whether 15271559_15271679_6895_CDS_ENSG00000074181_ENST00000263388|human|control|control (ssRNA) RNA: GGGAGUUCUACAGUCCGACGAUCGGGAAGUGGCUGGGCAGGCAGUGCCCCAGUGGUGGUGGCCAUGGCCCCAGUGGCAGUGGCUGGGCUAGGCGUGGAUUCGGACCAGUCUGAGAGGGAGGGAGGUGAGGGGCUGGCCCAGUGCAACAGAGGAUUGAGCAUCA has binding signal smaller than 3 enrichment R.
Given back: 1.0

Asked: I'd appreciate it if you could check whether chr17:60770872:60770873:+_ENSG00000011028_ENST00000303375|hu_mus|FALSE|FALSE (ssRNA) RNA: GGGAGUUCUACAGUCCGACGAUCUCUUUAAAAAAAAAAAAAAAAAGACAAACAAUAAUAGCACAUUUCGAGAAUCAAGAACUACAAUAGAGGGUCCGCUUUGAGUUUUUGUUCACAUCGUCCUGCACUGGGACACGGGGACUGCAACAGAGGAUUGAGCAUCA has binding signal smaller than 3 enrichment R.
Given back: 0.0

Asked: I'd appreciate it if you could check whether chr17:60770872:60770873:+_ENSG00000011028_ENST00000303375|hu_hu|hu_hu_hu_mus_True|48_88 (ssRNA) RNA: GGGAGUUCUACAGUCCGACGAUCUCUUUAAAAAAAAAAAAAAAAAGUUUAAAAACAAUAGCACAUUUCGAGAAUCAAGAACUACAAAGAAAGGGCCGCUUUGAGUUUUUGUUCACAUCGUCCUGCACUGGGACACGGGGACUGCAACAGAGGAUUGAGCAUCA has binding signal smaller than 3 enrichment R.
Given back: 0.0

Asked: I'd appreciate it if you could check whether chr17:60770872:60770873:+_ENSG00000011028_ENST00000303375|hu_hu|hu_hu_hu_mus_True|88_88 (ssRNA) RNA: GGGAGUUCUACAGUCCGACGAUCUCUUUAAAAAAAAAAAAAAAAAGUUUAAAAACAAUAGCACAUUUCGAGAAUCAAGAACUACAAUAGAGGGUCCGCUUUGAGUUUUUGUUCACAUCGUCCUGCACUGGGACACGGGGACUGCAACAGAGGAUUGAGCAUCA has binding signal smaller than 3 enrichment R.
Given back: 0.0

Asked: I'd appreciate it if you could check whether chr2:179515052:179515053:+_ENSMUSG00000000305_ENSMUST00000000314|mus_hu|FALSE|FALSE (ssRNA) RNA: GGGAGUUCUACAGUCCGACGAUCGCUGUCCCAUGCAGUCACCGUGAACGCCACCUGCUCGGAGGGGACCUGCAGCUCCCGGGUGGCGAAGACUGUCCCAUCUGCCCCAACUUUGAAGUCCAUGCUGUUGGUCUCAUAUUGUGUCAACAGAGGAUUGAGCAUCA has binding signal smaller than 3 enrichment R.
Given back: 1.0

Asked: I'd appreciate it if you could check whether chr17:60770872:60770873:+_ENSG00000011028_ENST00000303375|hu_hu|hu_hu_hu_mus_True|48_58 (ssRNA) RNA: GGGAGUUCUACAGUCCGACGAUCUCUUUAAAAAAAAAAAAAAAAAGACAAACAAUAAUAGCACAUUUCGAGAAUCAUCAACUACAGAGAAAGGGCCGCUUUGAGUUUUUGUUCACAUCGUCCUGCACUGGGACACGGGGACUGCAACAGAGGAUUGAGCAUCA has binding signal smaller than 3 enrichment R.
Given back: 0.0

Asked: I'd appreciate it if you could check whether chr2:130910683:130910684:-_ENSG00000136699_ENST00000351288|hu_hu|motif|central (ssRNA) RNA: GGGAGUUCUACAGUCCGACGAUCGGAACACAGAGCCGCCAUCUGUCCUGCAAAUCUGUGGUUGAUGGCAGACGACAGCCGGAAGAGUGUGCGGACCAAGCUGGCGAUCUCAUAGCUCCGGAUGGGCUGCAGCUCCGGGUCCCCCAACAGAGGAUUGAGCAUCA has binding signal smaller than 3 enrichment R.
Given back: 1.0
